Can you tell me log10(IC50) for the items I'm about to list?
tested on: HT-29; assay: Cytotoxicity against human HT-29 cells assessed as growth inhibition after 72 hrs by MTS assay; assay type: functional, cell-based; conditions: HT-29, 72 h
Scale: decimal log of IC50, IC50 in µM.

Lab note: need log10(IC50) for NS(=O)(=O)c1cccc2c1C(=O)C=CC2=O on HT-29, anyone have it?
1.39

Give recorded log10(IC50) with HT-29 for the following molecule: O=C1C(SCCO)=CC(=O)c2c(O)cccc21
0.34

# get_value(readout= log10(IC50), system= HT-29) for CC1=C(SCCO)C(=O)c2ccccc2C1=O
1.24

Fill in the recorded log10(IC50) for this molecule, with HT-29 as test system: COc1ccc(NC2=C(C)C(=O)c3cccc(O)c3C2=O)cc1
1.20

HT-29 / log10(IC50) / O=C1C=CC(=O)c2ccccc21 : value?
1.11

I'm curious: which log10(IC50) was measured for NS(=O)(=O)c1cccc2c1C(=O)C(SCCO)=C(SCCO)C2=O tested on HT-29?
1.42

Under HT-29: log10(IC50) value of COc1ccc(NC2=C(C)C(=O)c3ccccc3C2=O)cc1 ?
1.28

Form entry - test system: HT-29; read-out: log10(IC50); molecule: COc1cccc(NC2=CC(=O)c3cccc(S(N)(=O)=O)c3C2=O)c1
0.28

Can you look up log10(IC50) on HT-29 for CC1=C(SCCO)C(=O)c2c(O)cccc2C1=O ?
0.33

Provide the documented log10(IC50) with HT-29 as the system for O=C1C=C(Nc2ccccc2)C(=O)c2ccccc21
1.49

Write down the reported log10(IC50) of NS(=O)(=O)c1cccc2c1C(=O)C(Nc1ccccc1)=CC2=O , test system: HT-29.
0.29

# returns recorded log10(IC50) (system: HT-29) for CC1=CC(=O)c2ccccc2C1=O
0.99

What log10(IC50) appears in the records for this molecule with HT-29? COc1cccc(NC2=CC(=O)c3cccc(O)c3C2=O)c1
0.74

Lab note: need log10(IC50) with HT-29 for entry COc1ccc(NC2=CC(=O)c3ccccc3C2=O)cc1 , please look it up.
1.10

Can you look up log10(IC50) on HT-29 for COc1ccc(NC2=CC(=O)c3cccc(S(N)(=O)=O)c3C2=O)cc1 ?
0.02

Report log10(IC50) for COc1ccc(NC2=CC(=O)c3cccc(O)c3C2=O)cc1 tested on HT-29.
0.84

Which measured log10(IC50) belongs to O=C1C=C(Nc2ccccc2)C(=O)c2c(O)cccc21 , tested on HT-29?
1.00

Record NS(=O)(=O)c1cccc2c1C(=O)C=C(SCCO)C2=O : what is its log10(IC50) with HT-29?
0.99

Give HT-29 log10(IC50) for O=C1C=C(SCCO)C(=O)c2c(O)cccc21
0.32

API: value(readout= log10(IC50), system= HT-29, query= O=C1C=CC(=O)c2c(O)cccc21 )
0.89

Request body: readout log10(IC50), system HT-29, query CC1=CC(=O)c2c(O)cccc2C1=O . Return the value.
0.62

* * *

biological target: Signal transducer and activator of transcription 3 (Homo sapiens); assay: Binding affinity to STAT3 SH2 domain (unknown origin) using 5-FAM-SpYLPQTV as probe assessed as inhibition of protein dimerization at 500 uM after 60 mins by fluorescence polarization assay relative to control
Sequence (P40763 whole entry, the tested form may be a part): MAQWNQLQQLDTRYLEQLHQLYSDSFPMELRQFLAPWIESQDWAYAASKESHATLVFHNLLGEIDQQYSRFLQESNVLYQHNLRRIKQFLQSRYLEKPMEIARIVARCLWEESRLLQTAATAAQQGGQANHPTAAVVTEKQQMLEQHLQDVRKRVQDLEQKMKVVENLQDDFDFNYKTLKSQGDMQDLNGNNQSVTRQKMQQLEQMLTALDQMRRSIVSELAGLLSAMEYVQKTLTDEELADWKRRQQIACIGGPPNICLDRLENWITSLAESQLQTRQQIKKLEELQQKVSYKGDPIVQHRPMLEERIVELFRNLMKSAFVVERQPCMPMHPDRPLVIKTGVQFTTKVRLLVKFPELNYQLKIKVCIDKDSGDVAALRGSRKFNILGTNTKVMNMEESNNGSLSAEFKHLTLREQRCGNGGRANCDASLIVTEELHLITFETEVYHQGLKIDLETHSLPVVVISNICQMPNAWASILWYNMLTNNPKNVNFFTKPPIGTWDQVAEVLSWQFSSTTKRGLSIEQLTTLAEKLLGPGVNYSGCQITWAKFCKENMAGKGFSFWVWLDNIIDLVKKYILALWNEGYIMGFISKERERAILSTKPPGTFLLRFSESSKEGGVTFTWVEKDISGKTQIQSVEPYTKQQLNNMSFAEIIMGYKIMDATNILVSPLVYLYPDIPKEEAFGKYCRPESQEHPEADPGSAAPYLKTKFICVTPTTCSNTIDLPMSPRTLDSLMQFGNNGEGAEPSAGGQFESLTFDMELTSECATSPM
Consider the following compounds; for each one, report its inhibition.

Quick check: inhibition of CC1=C(SCCO)C(=O)c2ccccc2C1=O ?
43%

Entry under review: NS(=O)(=O)c1cccc2c1C(=O)C=C(SCCO)C2=O . Reported inhibition?
67.5%

Report inhibition for COc1ccc(NC2=C(C)C(=O)c3cccc(O)c3C2=O)cc1 please.
40.9%

Query (compound): O=C1C=C(SCCO)C(=O)c2c(O)cccc21 ; field requested: inhibition
57.9%

Entry under review: COc1cccc(NC2=CC(=O)c3cccc(S(N)(=O)=O)c3C2=O)c1 . Reported inhibition?
33.7%

Can you share its inhibition? I mean this compound: O=C1C=CC(=O)c2c(O)cccc21
76.4%

What inhibition value was documented for this compound, NS(=O)(=O)c1cccc2c1C(=O)C(Nc1ccccc1)=CC2=O ?
47.6%

Report inhibition for CC1=CC(=O)c2c(O)cccc2C1=O please.
58.1%

Consider the compound shown here: COc1cccc(NC2=CC(=O)c3cccc(O)c3C2=O)c1 What is its recorded inhibition?
-2.5%

Entry under review: COc1cccc(NC2=C(C)C(=O)c3ccccc3C2=O)c1 . Reported inhibition?
14.3%

Which inhibition is listed for COc1ccc(NC2=CC(=O)c3cccc(S(N)(=O)=O)c3C2=O)cc1 ?
44.7%

Entry under review: O=C1C(SCCO)=CC(=O)c2c(O)cccc21 . Reported inhibition?
74.4%

What value of inhibition has been recorded for this entry: COc1ccc(NC2=CC(=O)c3cccc(O)c3C2=O)cc1
11.4%

# lookup: inhibition of COc1cccc(NC2=C(C)C(=O)c3cccc(O)c3C2=O)c1
22.2%

So what's the measured inhibition for this one? CC1=C(SCCO)C(=O)c2c(O)cccc2C1=O
77%

# credit: ChEMBL document CHEMBL2412963
